Exercise: for every item that follows, state its recorded Activity.
target.under.test: Tyrosine-protein kinase BTK (Homo sapiens)
protocol.text: Inhibition of human BTK assessed as residual activity at 1 uM relative to control
Numeric only. Scale: %

Measured Activity of `COc1ccc2c(c1)c(/C=C1\C(=O)Nc3ccc(S(=O)(=O)N(C)C)cc31)cn2C` : 89

Measured Activity of `CNS(=O)(=O)c1ccc2c(c1)/C(=C/c1cn(C)c3ccc(OC)cc13)C(=O)N2` : 73

Measured Activity of `Cn1cc(/C=C2\C(=O)Nc3ccc(S(N)(=O)=O)cc32)c2ccccc21` : 119

Measured Activity of `CN(C)S(=O)(=O)c1ccc2c(c1)/C(=C/c1cn(C)c3ccc(O)cc13)C(=O)N2` : 107

Measured Activity of `COc1ccc2[nH]cc(/C=C3\C(=O)Nc4ccc(S(N)(=O)=O)cc43)c2c1` : 91

Measured Activity of `COc1ccc2c(c1)c(/C=C1\C(=O)Nc3ccc(S(N)(=O)=O)cc31)cn2C` : 107

* * *

target.under.test: Serine/threonine-protein kinase D1 (Homo sapiens) (UniProt Q15139)
Sequence (whole entry): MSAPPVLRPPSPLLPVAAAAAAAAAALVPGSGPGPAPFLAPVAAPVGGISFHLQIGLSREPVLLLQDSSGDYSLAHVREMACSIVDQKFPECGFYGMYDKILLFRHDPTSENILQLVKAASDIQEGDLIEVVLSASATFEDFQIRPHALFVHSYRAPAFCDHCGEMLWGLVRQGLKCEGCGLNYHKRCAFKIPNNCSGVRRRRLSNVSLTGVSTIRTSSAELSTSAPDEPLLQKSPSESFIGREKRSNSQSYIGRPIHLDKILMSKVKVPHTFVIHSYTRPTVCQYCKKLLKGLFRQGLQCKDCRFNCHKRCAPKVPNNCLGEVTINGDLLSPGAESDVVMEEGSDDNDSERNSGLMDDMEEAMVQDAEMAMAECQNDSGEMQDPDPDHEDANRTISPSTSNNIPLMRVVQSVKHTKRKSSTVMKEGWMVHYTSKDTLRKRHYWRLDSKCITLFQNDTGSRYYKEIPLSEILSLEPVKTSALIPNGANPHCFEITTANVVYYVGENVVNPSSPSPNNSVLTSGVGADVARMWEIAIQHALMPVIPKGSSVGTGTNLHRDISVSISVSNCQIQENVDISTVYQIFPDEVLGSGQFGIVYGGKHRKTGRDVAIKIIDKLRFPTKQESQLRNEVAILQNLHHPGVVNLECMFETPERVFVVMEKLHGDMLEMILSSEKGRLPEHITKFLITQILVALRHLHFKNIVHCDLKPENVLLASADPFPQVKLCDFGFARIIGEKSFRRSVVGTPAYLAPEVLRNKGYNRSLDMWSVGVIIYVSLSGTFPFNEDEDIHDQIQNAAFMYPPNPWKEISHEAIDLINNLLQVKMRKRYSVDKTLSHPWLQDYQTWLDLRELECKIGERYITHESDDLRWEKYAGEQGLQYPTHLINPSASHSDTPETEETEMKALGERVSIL
protocol.text: Inhibition of human PKCmu assessed as residual activity at 1 uM relative to control
quantity.kind: Activity (%)
Numeric only. Scale: %

Measured Activity of `CN(C)S(=O)(=O)c1ccc2c(c1)/C(=C/c1cn(C)c3ccc(O)cc13)C(=O)N2` : 89

Measured Activity of `COc1ccc2c(c1)c(/C=C1\C(=O)Nc3ccc(S(N)(=O)=O)cc31)cn2C` : 91

Measured Activity of `CNS(=O)(=O)c1ccc2c(c1)/C(=C/c1cn(C)c3ccc(OC)cc13)C(=O)N2` : 93

Measured Activity of `COc1ccc2c(c1)c(/C=C1\C(=O)Nc3ccc(S(=O)(=O)N(C)C)cc31)cn2C` : 92

Measured Activity of `COc1ccc2[nH]cc(/C=C3\C(=O)Nc4ccc(S(N)(=O)=O)cc43)c2c1` : 72

Measured Activity of `Cn1cc(/C=C2\C(=O)Nc3ccc(S(N)(=O)=O)cc32)c2ccccc21` : 91

* * *

Exercise: for every item that follows, state its recorded Activity.
target.under.test: UniProtKB Q06187
Sequence (Q06187 whole entry): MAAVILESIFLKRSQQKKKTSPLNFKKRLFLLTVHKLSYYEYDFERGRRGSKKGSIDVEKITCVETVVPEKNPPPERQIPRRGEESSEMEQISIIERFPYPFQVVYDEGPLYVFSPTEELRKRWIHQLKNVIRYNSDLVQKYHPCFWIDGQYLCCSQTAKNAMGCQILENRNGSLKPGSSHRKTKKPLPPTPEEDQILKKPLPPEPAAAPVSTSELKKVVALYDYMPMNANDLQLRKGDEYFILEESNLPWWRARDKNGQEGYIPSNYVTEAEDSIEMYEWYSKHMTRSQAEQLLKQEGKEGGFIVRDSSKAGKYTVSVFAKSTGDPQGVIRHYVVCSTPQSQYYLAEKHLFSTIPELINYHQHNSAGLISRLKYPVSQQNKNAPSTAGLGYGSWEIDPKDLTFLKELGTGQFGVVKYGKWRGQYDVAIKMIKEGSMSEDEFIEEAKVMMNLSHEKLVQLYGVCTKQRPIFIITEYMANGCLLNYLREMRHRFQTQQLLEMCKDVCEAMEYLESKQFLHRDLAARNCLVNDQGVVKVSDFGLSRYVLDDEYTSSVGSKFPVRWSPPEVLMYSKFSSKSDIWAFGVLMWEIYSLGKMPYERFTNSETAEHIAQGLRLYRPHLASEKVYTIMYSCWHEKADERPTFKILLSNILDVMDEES
protocol.text: Inhibition of human BTK assessed as residual activity at 0.1 uM relative to control
Numeric only. Scale: %

Measured Activity of `CNS(=O)(=O)c1ccc2c(c1)/C(=C/c1cn(C)c3ccc(OC)cc13)C(=O)N2` : 97

Measured Activity of `COc1ccc2c(c1)c(/C=C1\C(=O)Nc3ccc(S(=O)(=O)N(C)C)cc31)cn2C` : 89

Measured Activity of `COc1ccc2[nH]cc(/C=C3\C(=O)Nc4ccc(S(N)(=O)=O)cc43)c2c1` : 100

Measured Activity of `Cn1cc(/C=C2\C(=O)Nc3ccc(S(N)(=O)=O)cc32)c2ccccc21` : 111

Measured Activity of `CN(C)S(=O)(=O)c1ccc2c(c1)/C(=C/c1cn(C)c3ccc(O)cc13)C(=O)N2` : 95

Measured Activity of `COc1ccc2c(c1)c(/C=C1\C(=O)Nc3ccc(S(N)(=O)=O)cc31)cn2C` : 117

* * *

target.under.test: Protein kinase C alpha type (Homo sapiens) (UniProt P17252)
protocol.text: Inhibition of human PKCalpha assessed as residual activity at 1 uM relative to control
Exercise: for every item that follows, state its recorded Activity.
Numeric only. Scale: %

Considering `CNS(=O)(=O)c1ccc2c(c1)/C(=C/c1cn(C)c3ccc(OC)cc13)C(=O)N2` , its Activity with Protein kinase C alpha type (Homo sapiens) (UniProt P17252) was recorded as 103

Considering `CN(C)S(=O)(=O)c1ccc2c(c1)/C(=C/c1cn(C)c3ccc(O)cc13)C(=O)N2` , its Activity with Protein kinase C alpha type (Homo sapiens) (UniProt P17252) was recorded as 103

Considering `COc1ccc2c(c1)c(/C=C1\C(=O)Nc3ccc(S(N)(=O)=O)cc31)cn2C` , its Activity with Protein kinase C alpha type (Homo sapiens) (UniProt P17252) was recorded as 102

Considering `COc1ccc2c(c1)c(/C=C1\C(=O)Nc3ccc(S(=O)(=O)N(C)C)cc31)cn2C` , its Activity with Protein kinase C alpha type (Homo sapiens) (UniProt P17252) was recorded as 95

Considering `Cn1cc(/C=C2\C(=O)Nc3ccc(S(N)(=O)=O)cc32)c2ccccc21` , its Activity with Protein kinase C alpha type (Homo sapiens) (UniProt P17252) was recorded as 94

Considering `COc1ccc2[nH]cc(/C=C3\C(=O)Nc4ccc(S(N)(=O)=O)cc43)c2c1` , its Activity with Protein kinase C alpha type (Homo sapiens) (UniProt P17252) was recorded as 87

* * *

target.under.test: UniProtKB P08069
Sequence (P08069 31-736 limits assumed): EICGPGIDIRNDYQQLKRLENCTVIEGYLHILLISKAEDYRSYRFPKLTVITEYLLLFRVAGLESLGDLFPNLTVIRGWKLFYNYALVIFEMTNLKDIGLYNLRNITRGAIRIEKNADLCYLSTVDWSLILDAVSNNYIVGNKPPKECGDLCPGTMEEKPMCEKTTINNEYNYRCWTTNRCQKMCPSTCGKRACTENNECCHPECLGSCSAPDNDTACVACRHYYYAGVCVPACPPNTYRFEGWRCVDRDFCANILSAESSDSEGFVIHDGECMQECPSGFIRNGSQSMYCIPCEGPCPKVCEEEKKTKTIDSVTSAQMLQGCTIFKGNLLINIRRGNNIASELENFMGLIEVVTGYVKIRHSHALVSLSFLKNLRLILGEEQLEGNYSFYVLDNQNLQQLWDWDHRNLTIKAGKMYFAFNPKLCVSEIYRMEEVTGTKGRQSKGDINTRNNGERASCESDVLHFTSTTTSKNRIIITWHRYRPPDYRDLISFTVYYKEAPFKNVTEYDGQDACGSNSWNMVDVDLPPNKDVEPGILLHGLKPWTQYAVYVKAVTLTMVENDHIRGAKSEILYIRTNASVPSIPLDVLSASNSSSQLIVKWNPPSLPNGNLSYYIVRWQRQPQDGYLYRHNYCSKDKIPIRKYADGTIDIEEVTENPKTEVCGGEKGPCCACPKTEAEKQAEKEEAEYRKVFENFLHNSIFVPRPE
Sequence (P08069 741-1367 limits assumed): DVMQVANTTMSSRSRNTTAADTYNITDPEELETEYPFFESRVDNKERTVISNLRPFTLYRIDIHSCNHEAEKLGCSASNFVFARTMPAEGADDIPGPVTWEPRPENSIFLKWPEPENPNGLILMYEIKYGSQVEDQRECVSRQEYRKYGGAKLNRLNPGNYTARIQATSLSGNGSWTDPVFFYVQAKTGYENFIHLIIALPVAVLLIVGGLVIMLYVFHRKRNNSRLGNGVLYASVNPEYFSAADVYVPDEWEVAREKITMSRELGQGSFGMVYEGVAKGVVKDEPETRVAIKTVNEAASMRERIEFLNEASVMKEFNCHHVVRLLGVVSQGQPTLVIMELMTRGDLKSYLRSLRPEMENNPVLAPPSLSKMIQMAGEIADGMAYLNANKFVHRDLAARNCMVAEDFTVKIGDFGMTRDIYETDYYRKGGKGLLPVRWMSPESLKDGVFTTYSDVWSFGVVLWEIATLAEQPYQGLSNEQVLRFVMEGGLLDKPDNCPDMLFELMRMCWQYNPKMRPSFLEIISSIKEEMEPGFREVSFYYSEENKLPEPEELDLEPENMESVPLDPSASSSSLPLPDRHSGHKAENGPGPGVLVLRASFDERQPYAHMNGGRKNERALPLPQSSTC
protocol.text: Inhibition of human IGF1R assessed as residual activity at 1 uM relative to control
quantity.kind: Activity (%)
Numeric only. Scale: %

Measured Activity of `COc1ccc2c(c1)c(/C=C1\C(=O)Nc3ccc(S(N)(=O)=O)cc31)cn2C` : 100

Measured Activity of `COc1ccc2c(c1)c(/C=C1\C(=O)Nc3ccc(S(=O)(=O)N(C)C)cc31)cn2C` : 79

Measured Activity of `COc1ccc2[nH]cc(/C=C3\C(=O)Nc4ccc(S(N)(=O)=O)cc43)c2c1` : 97

* * *

target.under.test: MAP/microtubule affinity-regulating kinase 3 (Homo sapiens) (UniProt P27448)
Sequence (P27448 whole entry, looked up): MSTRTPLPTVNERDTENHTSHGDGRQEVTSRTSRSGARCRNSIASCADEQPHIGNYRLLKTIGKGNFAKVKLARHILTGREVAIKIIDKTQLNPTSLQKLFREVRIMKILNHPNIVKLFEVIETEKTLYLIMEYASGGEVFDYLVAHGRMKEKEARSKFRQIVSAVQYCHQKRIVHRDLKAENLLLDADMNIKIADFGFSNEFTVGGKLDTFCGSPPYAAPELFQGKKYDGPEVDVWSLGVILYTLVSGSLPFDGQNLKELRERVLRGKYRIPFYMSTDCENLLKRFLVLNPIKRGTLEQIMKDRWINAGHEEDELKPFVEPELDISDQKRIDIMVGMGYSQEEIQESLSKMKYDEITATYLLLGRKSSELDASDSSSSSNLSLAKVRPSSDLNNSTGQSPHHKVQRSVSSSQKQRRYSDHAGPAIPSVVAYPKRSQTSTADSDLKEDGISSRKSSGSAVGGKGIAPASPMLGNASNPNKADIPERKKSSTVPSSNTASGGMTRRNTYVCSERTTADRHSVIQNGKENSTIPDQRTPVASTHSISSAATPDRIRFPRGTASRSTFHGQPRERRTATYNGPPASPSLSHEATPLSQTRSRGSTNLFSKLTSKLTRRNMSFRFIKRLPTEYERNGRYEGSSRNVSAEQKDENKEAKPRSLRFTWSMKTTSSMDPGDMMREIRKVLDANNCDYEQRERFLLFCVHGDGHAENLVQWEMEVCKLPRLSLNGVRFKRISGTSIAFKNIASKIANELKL
protocol.text: Inhibition of human MARK3 assessed as residual activity at 1 uM relative to control
quantity.kind: Activity (%)
Numeric only. Scale: %

Measured Activity of `Cn1cc(/C=C2\C(=O)Nc3ccc(S(N)(=O)=O)cc32)c2ccccc21` : 88

Measured Activity of `CN(C)S(=O)(=O)c1ccc2c(c1)/C(=C/c1cn(C)c3ccc(O)cc13)C(=O)N2` : 96

Measured Activity of `COc1ccc2c(c1)c(/C=C1\C(=O)Nc3ccc(S(N)(=O)=O)cc31)cn2C` : 90

Measured Activity of `COc1ccc2[nH]cc(/C=C3\C(=O)Nc4ccc(S(N)(=O)=O)cc43)c2c1` : 93

* * *

target.under.test: Serine/threonine-protein kinase TBK1 (Homo sapiens) (UniProt Q9UHD2)
Sequence (Q9UHD2 whole entry): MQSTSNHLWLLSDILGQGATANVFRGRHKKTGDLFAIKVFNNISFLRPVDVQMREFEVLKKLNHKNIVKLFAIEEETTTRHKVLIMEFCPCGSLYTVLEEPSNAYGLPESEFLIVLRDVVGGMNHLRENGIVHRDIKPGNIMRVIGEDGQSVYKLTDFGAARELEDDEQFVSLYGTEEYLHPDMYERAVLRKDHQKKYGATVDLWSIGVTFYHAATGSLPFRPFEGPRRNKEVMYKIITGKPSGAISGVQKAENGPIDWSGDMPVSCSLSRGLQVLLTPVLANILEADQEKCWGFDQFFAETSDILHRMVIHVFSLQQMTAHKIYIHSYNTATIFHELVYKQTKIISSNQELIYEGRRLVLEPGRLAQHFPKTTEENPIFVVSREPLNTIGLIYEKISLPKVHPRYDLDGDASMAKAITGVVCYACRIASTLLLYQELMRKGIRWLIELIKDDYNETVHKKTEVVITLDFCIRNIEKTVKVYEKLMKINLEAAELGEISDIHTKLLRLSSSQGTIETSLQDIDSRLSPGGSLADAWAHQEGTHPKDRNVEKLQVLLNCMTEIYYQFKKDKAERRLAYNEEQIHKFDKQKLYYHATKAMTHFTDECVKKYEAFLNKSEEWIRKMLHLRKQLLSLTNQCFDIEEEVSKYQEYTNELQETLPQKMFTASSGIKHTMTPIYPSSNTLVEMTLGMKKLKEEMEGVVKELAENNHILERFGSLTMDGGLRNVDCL
protocol.text: Inhibition of human TBK1 assessed as residual activity at 1 uM relative to control
Exercise: for every item that follows, state its recorded Activity.
Numeric only. Scale: %

Measured Activity of `CN(C)S(=O)(=O)c1ccc2c(c1)/C(=C/c1cn(C)c3ccc(O)cc13)C(=O)N2` : 81

Measured Activity of `COc1ccc2c(c1)c(/C=C1\C(=O)Nc3ccc(S(N)(=O)=O)cc31)cn2C` : 55

Measured Activity of `COc1ccc2c(c1)c(/C=C1\C(=O)Nc3ccc(S(=O)(=O)N(C)C)cc31)cn2C` : 79
